System: CCRIS mutagenicity, Ames/micronucleus/aberration tests
experimentDescription: CCRIS mutagenicity studies
assayContext: Test System: E. COLI; Strain/Indicator: WP2 (PKM101); Metabolic Activation: NONE; Method: STANDARD PLATE
Calls of active or inactive are those of the source. How the calls were made is not given here.
The categories you may choose from are y = active, n = inactive

What was the test verdict on ClCCl ? n

# outcome recorded in this test, key = C=CC=O n

Which outcome was assigned to CCOC(=O)CCl in this test? n

More entries:
What did this assay record as the result for O=C(O)C(Cl)CCl (configuration not stated) ? n

Name the outcome recorded for CNNC in the assay. y

Any idea what this test logged for Nc1ccc(N)cc1 ? n

# lookup: test call for ICI n

###

System: CCRIS mutagenicity, Ames/micronucleus/aberration tests
experimentDescription: CCRIS mutagenicity studies
assayContext: Test System: AMES SALMONELLA TYPHIMURIUM; Strain/Indicator: TA100; Method: STANDARD PLATE
Activity calls are given as the source filed them. No rule for the calls is given here.
// classify into active, inactive

Tell me the assay call for CCc1c2ccccc2c(C)c2ccc3ccccc3c12 please. inactive

# outcome recorded in this test, key = CCc1c2ccccc2cc2c1ccc1ccccc12 active

# outcome recorded in this test, key = CCc1c2ccccc2c(C)c2c1ccc1ccccc12 inactive

For the next question, use this compound.
Short answer needed: outcome of this test for C=C(C)C1CCC(=C)C2C3=C(C[C@H](C)C3=O)C(=O)C(C)=C[C@@H]12 (some centres undefined) ? inactive

###

Tested on: CCRIS mutagenicity, Ames/micronucleus/aberration tests
experimentDescription: CCRIS mutagenicity studies
assayContext: Test System: AMES SALMONELLA TYPHIMURIUM; Strain/Indicator: TA1535; Metabolic Activation: HAMSTER, LIVER, S-9, AROCLOR 1254 (30%); Method: PREINCUBATION
Text: The CCRIS database contains chemical records with carcinogenicity, mutagenicity, tumor promotion, and tumor inhibition test results. It was developed by the National Cancer Institute (NCI). Data are derived from studies cited in primary journals, current awareness tools, NCI reports, and other sources. Test results have been reviewed by experts in carcinogenesis and mutagenesis. CCRIS provides historical information from the years 1985 - 2011. It is no longer updated. […]
Active and inactive are the calls of the source. The rule behind the calls is not given here.
Pick one and only one: YES for active, NO for inactive

Per the records of this test, what outcome belongs to N#C/C(N)=C(/N)C#N ? NO

Per the records of this test, what outcome belongs to CCCCCCCC(=O)O ? NO

Next:
Query: recorded result category for CC(=O)OCCC(C)C in this test NO

In this assay, the call recorded for O=C1NC(=O)C(O)(O)C(=O)N1 was what? NO

Any idea what this test logged for Nc1nc2ccccc2[nH]1 ? NO

Name the outcome recorded for CC(=O)NBr in the assay. NO

Recorded call for O=C(O)CN(CCN(CC(=O)O)CC(=O)O)CC(=O)O ? NO

###

Test system: CCRIS mutagenicity, Ames/micronucleus/aberration tests
experimentDescription: CCRIS mutagenicity studies
assayContext: Test System: AMES SALMONELLA TYPHIMURIUM; Strain/Indicator: TA1535; Metabolic Activation: RAT, LIVER, S-9; Method: STANDARD PLATE
Activity calls are given as the source filed them. How the calls were made is not given here.
readoutKind: mutagenic call

Please review the entries below; each comes with its answer.
For [O-]/[N+](=N\O)c1ccccc1 the compound record lists mutagenic call as inactive; negative

Lab book: mutagenic call of CCC(=O)Oc1ccc(/C(CC)=C(\CC)c2ccc(OC(=O)CC)cc2)cc1 noted as inactive; negative

Entry O=NN1CCCCC1 — recorded mutagenic call = active; positive

According to the records, this compound O=NO displays mutagenic call of active; positive

Input C1O[C@@H]1[C@@H]1CO1 . Output mutagenic call: active; positive

Summary for this compound, CCc1cccc2c3c([nH]c12)C(C)(CC)OCC3 (stereo not drawn) : mutagenic call is inactive; negative

--- query ---
Note to self: mutagenic call recorded for CC[C@H]1OC(=O)[C@H](C)[C@@H](O[C@H]2C[C@@](C)(OC)[C@@H](O)[C@H](C)O2)[C@H](C)[C@@H](O[C@@H]2O[C@H](C)C[C@H](N(C)C)[C@H]2O)[C@](C)(O)C[C@@H](C)CN(C)[C@H](C)[C@@H](O)[C@]1(C)O was inactive; negative
